MEASURED ENDPOINT: glass transition temperature (°C)
# number only, unit °C dropped from output

Quick one: glass transition temperature for *c1ccc(OC(=O)c2ccc([Si](C)(C)c3ccc(C(=O)Oc4ccc(C5(*)c6ccccc6C(=O)N5c5ccccc5)cc4)cc3)cc2)cc1 (repeat unit) ? 255.00

Same again, this time with *c1ccc(-c2sc(-c3cc(CCCCCCCCCCCC)c(*)s3)cc2CCCCCCCCCCCC)cc1 (repeat unit) 59.60

Same again, this time with *CC(*)C(=O)OCCSCC#N (repeat unit) -24.00

Same again, this time with *CCCCOC(=O)CCCCCNC(=O)CCCCC(=O)NCCCCCC(=O)O* (repeat unit) -15.00

Same again, this time with *CC(*)(CC(=O)OCCCc1ccccc1)C(=O)OCCCc1ccccc1 (repeat unit) -8.00

Same again, this time with *Oc1ccc(Cc2ccc(OC(*)=S)cc2)cc1 (repeat unit) 95.00

Same again, this time with *CC(C)(C)COC(=O)O* (repeat unit) 25.00

Same again, this time with *c1ccc(-c2nc3cc(-c4ccc5nc(-c6ccccc6)c(-c6ccc(N7C(=O)C8OC9C(=O)N(*)C(=O)C9C8C7=O)cc6)nc5c4)ccc3nc2-c2ccccc2)cc1 (repeat unit) 230.00

Same again, this time with *c1ccc(C(=O)Nc2cccc(Oc3ccc(S(=O)(=O)c4ccc(Oc5cccc(NC(=O)c6ccc(N7C(=O)c8ccc(-c9cccc%10c9C(=O)N(*)C%10=O)cc8C7=O)cc6)c5)cc4)cc3)c2)cc1 (repeat unit) 241.00

Same again, this time with *O[Si](C)(C)c1cccc([Si](*)(C)C)c1 (repeat unit) -48.00

Same again, this time with *Oc1ccc(C(C)(C)c2ccc(Oc3ccc(C(=O)c4ccc(C(c5ccc(C(=O)c6ccc(*)cc6)cc5)(C(F)(F)F)C(F)(F)F)cc4)cc3)cc2)cc1 (repeat unit) 181.00

Same again, this time with *CC(*)(C)C(=O)OCCCCC(F)(F)C(F)(F)C(F)(F)C(F)(F)C(F)(F)C(F)(F)F (repeat unit) 23.00

Same again, this time with */C=C/c1cc(OCCCCCC)c(*)cc1OC (repeat unit) 60.00

Same again, this time with *CC(*)c1c(F)c(F)c(C(F)(F)F)c(F)c1F (repeat unit) 112.00

Same again, this time with *CCCc1nc2cc(-c3ccc4[nH]c(*)nc4c3)ccc2[nH]1 (repeat unit) 275.00

Same again, this time with */C=C/C1CC(*)C(C#N)([Si](C)(C)[Si](C)(C)C)C1 (repeat unit) 120.00

Same again, this time with *OC(COC(=O)c1cccc(C(*)=O)c1)COc1ccc(/N=N/c2ccc(C#N)cc2)cc1 (repeat unit) 119.00

Same again, this time with *c1ccc(OCCCCCCOc2ccc(C3C4C(=O)N(c5ccc(N6C(=O)C7ON(C)C(*)C7C6=O)cc5)C(=O)C4ON3C)cc2)cc1 (repeat unit) 52.00

Same again, this time with *O[Si](*)(CCCOCCOCCOCCOCCOCCOCCOC)CCCOCCOCCOCCOCCOCCOCCOC (repeat unit) -68.90

Same again, this time with *CC(*)(CC(=O)OCCCCCC)C(=O)OCCCCCC (repeat unit) -7.00

Same again, this time with *c1ccc2oc(-c3ccc(-c4nc5cc(C(*)(C(F)(F)F)C(F)(F)F)ccc5o4)cc3)nc2c1 (repeat unit) 371.50

Same again, this time with *C(=O)Nc1ccc(Oc2cccc(Oc3ccc(NC(=O)c4ccc5c(c4)C(=O)N(c4ccc(Oc6cccc(Oc7ccc(N8C(=O)c9ccc(*)cc9C8=O)cc7)c6C#N)cc4)C5=O)cc3)c2C#N)cc1 (repeat unit) 220.00

Same again, this time with *Oc1ccc(/C(=C/c2ccc(-c3ccc(/C=C(\c4ccccc4)c4ccc(OC(=O)CCCCC(*)=O)cc4)cc3)cc2)c2ccccc2)cc1 (repeat unit) 128.00

Same again, this time with *CCCCCCN(C)C(=O)CCC(=O)N(*)C (repeat unit) 7.50

Same again, this time with *CC(=O)O* (repeat unit) 45.00

Same again, this time with *Nc1ccc(C(C)(C)c2ccc(C(C)(C)c3ccc(Nc4ccc(C(=O)c5ccc(C(=O)c6ccc(*)cc6)cc5)cc4)cc3)cc2)cc1 (repeat unit) 157.00

Same again, this time with *c1ccc(C2(c3ccc(-c4cc(-c5ccccc5)c5cc(-c6ccc7nc(*)cc(-c8ccccc8)c7c6)ccc5n4)cc3)c3ccccc3C(=O)c3ccccc32)cc1 (repeat unit) 417.00

Same again, this time with *CC(=C)COCC(=C)COC(=O)O* (repeat unit) 70.50

Same again, this time with *OCCOC(=O)c1cccc(C(=O)OCCOc2nc(-c3ccc(OCCCC)cc3)nc(*)c2-c2ccc(OC)cc2)c1 (repeat unit) 92.00

Same again, this time with *Nc1ccc(Cc2ccc(NC(=O)CCCCCCCC(*)=O)cc2)cc1 (repeat unit) 140.00

Same again, this time with *CC(*)P(=O)(c1ccccc1)c1ccccc1 (repeat unit) 127.50

* * *

Exercise: state measured glass transition temperature for each of the molecules provided.
# number only, unit °C dropped from output

Quick one: glass transition temperature for *CC(*)(C)C(=O)OCCCCCCOc1ccc(C(=O)Oc2ccc(/N=N/c3ccc(Br)cc3)c3ccccc23)cc1 (repeat unit) ? 46.00

Same again, this time with *c1ccc(Oc2ccc(C(=O)c3ccc(Oc4ccc(C5(*)OC(=O)c6ccccc65)cc4)cc3)cc2)cc1 (repeat unit) 218.00

Same again, this time with *CCCCCC(=O)Nc1ccc(Cc2ccc(NC(=O)CCCCCN3C(=O)c4ccc(C(=O)c5ccc6c(c5)C(=O)N(*)C6=O)cc4C3=O)cc2)cc1 (repeat unit) 187.00

Same again, this time with *C(=O)Nc1ccc(Oc2ccc(Oc3ccc(NC(=O)c4ccc5c(c4)C(=O)N(c4ccc(Oc6ccc(C7(c8ccc(Oc9ccc(N%10C(=O)c%11ccc(*)cc%11C%10=O)cc9)cc8)NC(=O)c8ccccc87)cc6)cc4)C5=O)cc3)cc2)cc1 (repeat unit) 300.00

Same again, this time with *Oc1ccc(CC(NC(=O)CCc2ccc(OC(=O)COCCOCC(*)=O)cc2)C(=O)OC(C)C)cc1 (repeat unit) 58.00

Same again, this time with *CC(*)(C)C(=O)Nc1ccc(C(=O)/C=C/c2ccc(OC)cc2)cc1 (repeat unit) 35.00

* * *

Labelling field: enter met if recorded glass transition temperature is less than 200 °C. Enter not met if it equals or exceeds that cut-off.

Answer whether the molecule *Oc1cc(Br)cc(Br)c1* (repeat unit) has glass transition temperature strictly less than 200 °C met

Same again, this time with *CC(=O)NCCCCCCNC(=O)CCc1ccc(O*)cc1 (repeat unit) met

Same again, this time with *O[Si](C)(C)O[Si](C)(C)O[Si](C)(C)O[Si](C)(C)O[Si](C)(C)OC(C)CCC(*)C (repeat unit) met

Same again, this time with */C=C/C1CC(*)C2C(=O)N(CCC)C(=O)C12 (repeat unit) met

Same again, this time with *CC(*)(C)C(=O)OCC(F)(F)C(F)(F)F (repeat unit) met

Same again, this time with *Oc1ccc(C2(c3ccc(Oc4c(F)c(F)c(C(=O)c5c(F)c(F)c(*)c(F)c5F)c(F)c4F)cc3)c3ccccc3-c3ccccc32)cc1 (repeat unit) not met

Same again, this time with *C(=O)Nc1ccc(NC(=O)c2ccc3c(c2)C(=O)N(c2ccc(Oc4cccc5c(N6C(=O)c7ccc(*)cc7C6=O)cccc45)cc2)C3=O)cc1 (repeat unit) not met

Same again, this time with *CC(*)OC(=O)c1cccc(OC)c1 (repeat unit) met

Same again, this time with *CCCCCC(=O)Oc1ccc2ccc(OC(=O)c3ccc4c(c3)C(=O)N(*)C4=O)cc2c1 (repeat unit) met

Same again, this time with *c1ccc(C(c2ccc(N3C(=O)c4ccc(Oc5ccc6cc(Oc7ccc8c(c7)C(=O)N(*)C8=O)ccc6c5)cc4C3=O)cc2)(C(F)(F)F)C(F)(F)F)cc1 (repeat unit) not met

Same again, this time with *CC(*)(C)C(=O)OCCCCCCCCCCn1c2ccccc2c2cc(/C=C(\C#N)c3ccc([N+](=O)[O-])cc3)ccc21 (repeat unit) met

Same again, this time with *c1[nH]c(*)c(OC)c1OC (repeat unit) met

Same again, this time with *CCCCCCOC(=O)OCCCCCCN1C(=O)c2ccc(-c3ccc4c(c3)C(=O)N(*)C4=O)cc2C1=O (repeat unit) met

Same again, this time with *c1ccc(C(c2ccccc2)(c2ccc(N3C(=O)c4ccc(Oc5ccc6c(c5)C(=O)N(*)C6=O)cc4C3=O)cc2)C(F)(F)F)cc1 (repeat unit) not met

Same again, this time with *OC1CCC(OC(=O)CCCCC(*)=O)CC1 (repeat unit) met

Same again, this time with *CCCCCCCCCOC(=O)c1ccc(C(=O)O*)cc1 (repeat unit) met

Same again, this time with *Nc1ccc(Cc2ccc(NC(=O)c3cc(C(*)=O)cc(N4C(=O)C5C6C=CC(C6)C5C4=O)c3)cc2)cc1 (repeat unit) not met

Same again, this time with *CCN(CCOC(=O)c1ccc(C(=O)O*)cc1)c1ccc(C=C(C#N)C#N)cc1 (repeat unit) met

Same again, this time with */C=C/c1ccc(N(c2ccc(/C=C/c3ccc4c5ccc(*)cc5n(CC(CC)CCCC)c4c3)cc2)c2ccc(OCC(CC)CCCC)cc2)cc1 (repeat unit) met

Same again, this time with *CCOCCOCCOCCOC(=O)c1ccc(-c2ccc(-c3ccc(C(=O)O*)cc3)cc2)cc1 (repeat unit) met

Same again, this time with *CC(*)c1cccc(NC(C)=O)c1 (repeat unit) met

Same again, this time with *CC(*)(C)C(=O)Oc1ccc(-c2nnc(-c3ccc(C(C)(C)C)cc3)o2)cc1 (repeat unit) met

Same again, this time with */N=N/c1ccc([Te]c2ccc(*)cc2)cc1 (repeat unit) not met

Same again, this time with *O[Si](C)(C)O[Si](C)(C)O[Si](C)(C)O[Si](C)(C)O[Si](C)(C)OC1=C(*)c2cccc3cccc1c23 (repeat unit) met

Same again, this time with *Oc1ccc(CC(NC(=O)CCc2ccc(OC(=O)CCC(*)=O)cc2)C(=O)OCCCC)cc1 (repeat unit) met

Same again, this time with *C(=O)c1ccc2c(c1)C(=O)N(c1cccc(C(=O)c3ccc(C(=O)c4cccc(N5C(=O)c6ccc(*)cc6C5=O)c4)cc3)c1)C2=O (repeat unit) not met

Same again, this time with *C(=O)Nc1ccc(C2(c3ccc(N4C(=O)c5ccc(*)cc5C4=O)cc3)CCC(C(C)(C)CC)CC2)cc1 (repeat unit) not met
